Data provenance is PubChem BioAssay (NCI).

Measured TGI, listed per entry for reference.
System: OVCAR-4 ovarian
experiment_notes: NCI tumour cell line growth inhibition, 48 h

Use the examples below as a reference point.
O=C(O)CCC1CCc2cccc3occ1c23 (configuration not stated) | > 100 µM
Cc1ccc(-n2cnc3c(N/N=C4\SCC(=O)N4c4ccccc4)ncnc32)cc1 | 21.2 µM
N/N=C(\Cc1ccccc1)NN=C(N)N | > 100 µM
O=C1CCC[C@H]2O[C@@H](COCc3ccccc3)C[C@@H]12 | > 100 µM
COc1cnc2c(c1)C(=O)c1c-2n(CCCN2CCCC2)c(=O)c2cc(Cl)ccc12 | 11.2 µM
Clc1ccc(CN2COc3c(cc(Cl)c4cccnc34)C2)cc1 | 8.26 µM
CC(C)=CCC/C(C)=C/Cc1c(O)ccc2c1[nH]c1cc(O)c(C)cc12 | 12.1 µM
Cc1ncc([N+](=O)[O-])n1CCNC(=O)CCCn1cnc([N+](=O)[O-])n1 | > 100 µM

Query: Using known records, supply TGI for "CO[C@@H](c1ccccc1)[C@H](O)[C@](O)(c1ccccc1)P(=O)(OC)OC"
Result: > 100 µM

Query: Using known records, supply TGI for "O=c1[nH]cc(OCC(F)(F)F)c(=O)[nH]1"
Result: > 100 µM

Query: Using known records, supply TGI for O=C1CC(CC(OCc2ccccc2)C(COCc2ccccc2)OCc2ccccc2)CC(=O)N1 (configuration not stated)
Result: > 100 µM

Query: Using known records, supply TGI for "C[C@H](CSC(=O)c1ccccc1)C(=O)N1c2ccccc2C[C@H]1C(=O)O"
Result: > 100 µM

Query: Using known records, supply TGI for "O=C1c2ccccc2C(=O)C1C(c1ccc([N+](=O)[O-])cc1)C1C(=O)c2ccccc2C1=O"
Result: > 100 µM

Query: Using known records, supply TGI for "Nc1nnc(-c2ccco2)c(-c2ccco2)n1"
Result: > 100 µM

Query: Using known records, supply TGI for COc1cc(/C=C/C2=NN(c3cccc(S(=O)(=O)O)c3)C3(C2)C(Cl)C(=O)N3c2nc3ccccc3s2)ccc1O (configuration not stated)
Result: 30.4 µM
